Molecular target: FOL wt
Sequence (as listed by the source): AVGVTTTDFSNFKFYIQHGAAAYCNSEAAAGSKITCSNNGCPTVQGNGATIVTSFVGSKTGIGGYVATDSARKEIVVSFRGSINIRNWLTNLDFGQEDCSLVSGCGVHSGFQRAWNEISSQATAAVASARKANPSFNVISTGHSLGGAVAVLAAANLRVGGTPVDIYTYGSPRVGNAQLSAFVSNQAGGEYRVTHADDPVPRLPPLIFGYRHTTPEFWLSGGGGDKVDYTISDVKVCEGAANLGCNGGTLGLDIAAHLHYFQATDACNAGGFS
Assay: Enzyme assay p-NP butyrate, inhibitory effect of peptides on FoL wildtype (Example 8)
Type: biochemical, Fusarium oxysporum
Conditions: fitted against inhibitor/lipase ratio (peptide excess 0.5 to 1000), pH 7
result type: IC50 value (half maximal inhibitory concentration)

{"item sequence": "ATMTDAELEKKLNSYVQMAKEYVKNNQARS [P1′]", "study target": "FOL wt", "endpoint value": "No"}
{"item sequence": "ATMTDAELEKKLNSYVQMDKEEVKNNQARS [Peptide P4]", "study target": "FOL wt", "endpoint value": "No"}
{"item sequence": "ATMTEAELEKKLNSYVQMDKEYVKNNQARS [Peptide P1]", "study target": "FOL wt", "endpoint value": "Very low"}
{"item sequence": "ATMTDAELTKKLNSYVQMDKEYVKNNQARS [Peptide P2]", "study target": "FOL wt", "endpoint value": "Very low"}
